Attribution: patent US20050107447A1

# studyTarget: LPA1 (Mus musculus)
# Sequence (P61793 whole entry): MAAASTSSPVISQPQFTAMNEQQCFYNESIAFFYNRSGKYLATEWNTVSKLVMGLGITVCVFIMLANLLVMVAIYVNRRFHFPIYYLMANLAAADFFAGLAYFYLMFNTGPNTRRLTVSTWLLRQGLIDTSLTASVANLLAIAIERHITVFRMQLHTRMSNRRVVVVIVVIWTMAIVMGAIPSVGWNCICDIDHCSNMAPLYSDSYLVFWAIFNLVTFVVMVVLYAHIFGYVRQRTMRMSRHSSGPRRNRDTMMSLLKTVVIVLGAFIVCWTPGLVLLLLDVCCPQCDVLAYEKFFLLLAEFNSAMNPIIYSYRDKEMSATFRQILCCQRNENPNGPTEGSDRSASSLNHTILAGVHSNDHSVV
# procedureDetails: GTP[γ35S] binding, LPA1 transfected HEK293T (or RH7777) cell membranes
# studyConditions: agonist, GTP[γ35S] binding
readoutName: EC50 (nM)

Recorded EC50, per entry:
{"smilesInput": "CCCCCCCC/C=C\\CCCCCCCC(=O)N[C@@H](COP(=O)(O)O)Cc1ccccc1", "resultValue": 38.4}
{"smilesInput": "CCCCCCCC/C=C\\CCCCCCCC(=O)N[C@@H](C)COP(=O)(O)O", "resultValue": 2900}

a. CCCCCCCC/C=C\CCCCCCCC(=O)N[C@H](CO)COP(=O)(O)O
b. CCCCCCCC/C=C\CCCCCCCC(=O)N[C@H](CC)COP(=O)(O)O
c. CCCCCCCC/C=C\CCCCCCCC(=O)N[C@H](CN)COP(=O)(O)O
d. CCCCCCCC/C=C\CCCCCCCC(=O)N[C@H](C)COP(=O)(O)O
e. CCCCCCCC/C=C\CCCCCCCC(=O)N[C@@H](CC)COP(=O)(O)O
Write the entries in order, lowest recorded EC50 first. API: response body holds the labels in the requested order.
d, c, a, b, e
(d: 3.4 nM, c: 4.9 nM, a: 7.9 nM, b: 35.8 nM, e: 1580 nM)

---

# studyTarget: LPA3 (Homo sapiens, UniProt Q9UBY5)
# Sequence (Q9UBY5 whole entry): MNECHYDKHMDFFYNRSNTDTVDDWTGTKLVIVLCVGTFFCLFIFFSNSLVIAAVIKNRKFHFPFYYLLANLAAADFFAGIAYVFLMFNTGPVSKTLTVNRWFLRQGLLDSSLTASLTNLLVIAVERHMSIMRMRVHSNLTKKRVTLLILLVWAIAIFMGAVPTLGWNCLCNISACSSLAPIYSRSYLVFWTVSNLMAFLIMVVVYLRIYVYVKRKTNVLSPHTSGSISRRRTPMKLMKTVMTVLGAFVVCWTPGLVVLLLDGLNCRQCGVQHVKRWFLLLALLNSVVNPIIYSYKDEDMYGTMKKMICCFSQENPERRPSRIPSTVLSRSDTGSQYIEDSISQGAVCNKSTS
# procedureDetails: GTP[γ35S] binding, LPA3 transfected HEK293T cell membranes
# Type: biochemical
# Parameters: expressed in transfected cells; host or cells: HEK293T (transient, calcium phosphate)
readoutName: Emax (%)

{"smilesInput": "CCCCCCCC/C=C\\CCCCCCCC(=O)N[C@H](CN)COP(=O)(O)O", "Emax, %": 103}
{"smilesInput": "CCCCCCCC/C=C\\CCCCCCCC(=O)N[C@@H](C)COP(=O)(O)O", "Emax, %": 9.7}
{"smilesInput": "CCCCCCCC/C=C\\CCCCCCCC(=O)N[C@@H](COP(=O)(O)O)C(C)C", "Emax, %": 45.3}
{"smilesInput": "CCCCCCCC/C=C\\CCCCCCCC(=O)N[C@H](CO)COP(=O)(O)O", "Emax, %": 107}
{"smilesInput": "CCCCCCCC/C=C\\CCCCCCCC(=O)N[C@H](COP(=O)(O)O)C(C)C", "Emax, %": 27.7}
{"smilesInput": "CCCCCCCC/C=C\\CCCCCCCC(=O)N[C@H](CC)COP(=O)(O)O", "Emax, %": 83.5}

A. CCCCCCCC/C=C\CCCCCCCC(=O)N[C@H](C)COP(=O)(O)O
B. CCCCCCCC/C=C\CCCCCCCC(=O)N[C@@H](CN)COP(=O)(O)O
Please indicate which entry, A or B , has the lower recorded Emax value. Write down the label of the entry you select.
B

P. CCCCCCCC/C=C\CCCCCCCC(=O)N[C@@H](COP(=O)(O)O)C(=O)OC
Q. CCCCCCCC/C=C\CCCCCCCC(=O)N[C@H](COP(=O)(O)O)C(=O)OC
Could you determine which record has the numerically smaller Emax? Candidates: P and Q Mark your answer with the label of the selected entry.
Q
(Q: 3.8%, P: 84.4%)

---

# studyTarget: LPA2 (Homo sapiens, UniProt Q9HBW0)
# Sequence (Q9HBW0 whole entry): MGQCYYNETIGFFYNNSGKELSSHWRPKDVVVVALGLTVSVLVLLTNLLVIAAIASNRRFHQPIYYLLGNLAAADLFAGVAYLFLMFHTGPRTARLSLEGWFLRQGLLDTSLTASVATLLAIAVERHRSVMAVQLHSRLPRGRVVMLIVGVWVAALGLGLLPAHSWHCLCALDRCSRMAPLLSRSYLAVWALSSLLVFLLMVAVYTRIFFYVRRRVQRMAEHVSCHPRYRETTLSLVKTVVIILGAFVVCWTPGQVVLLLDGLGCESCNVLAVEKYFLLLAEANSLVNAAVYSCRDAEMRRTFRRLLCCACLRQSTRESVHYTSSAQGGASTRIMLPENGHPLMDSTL
# procedureDetails: GTP[γ35S] binding, LPA2 transfected HEK293T cell membranes
# Type: biochemical
# Parameters: expressed in transfected cells; host or cells: HEK293T (transient, calcium phosphate)
readoutName: Emax (%)

P. CCCCCCCC/C=C\CCCCCCCC(=O)N[C@@H](CO)COP(=O)(O)O
Q. CCCCCCCC/C=C\CCCCCCCC(=O)N[C@@H](CN)COP(=O)(O)O
R. CCCCCCCC/C=C\CCCCCCCC(=O)N[C@@H](C)COP(=O)(O)O
Give the order of the entries above, sorted from least to greatest Emax. Rank the items, then write their labels in that order.
R, Q, P
(R: 6.9%, Q: 36.4%, P: 77.3%)

I. CCCCCCCC/C=C\CCCCCCCC(=O)N[C@H](CC)COP(=O)(O)O
II. CCCCCCCC/C=C\CCCCCCCC(=O)N[C@H](COP(=O)(O)O)C(=O)OC
III. CCCCCCCC/C=C\CCCCCCCC(=O)N[C@H](COP(=O)(O)O)C(C)C
Give the ascending ranking of the items by reported Emax. # format: label list in the order the request specifies
III, II, I
